Value source: PubChem BioAssay AID1117361

# EXPERIMENTAL SYSTEM: Protein Tat (Human immunodeficiency virus type 1 group M subtype B (isolate HXB2))
# PROTOCOL TEXT: inhibitors of Tat binding to TAR RNA, dose response, counter-screen for Vif-APOBEC3G degradation inhibitor project, biochemical, fluorescence polarization, FAM-labeled TAR RNA (AID 1117361)
# TEST CONTEXT: at 100 µM (top of the series) unless noted; series mostly up to 100 µM
In all, about 3,600 compounds went through this assay and about 900 (25%) were called active. Only a sample is shown. Measured potencies and affinities stand elsewhere.
OBSERVED PROPERTY: outcome

IN: Param item = NNC(=S)Nc1ccc(Cl)cc1 ; retrieve measured outcome.
OUT: inactive

IN: Param item = O=C(NCCC1CCCCN1S(=O)(=O)c1ccc(F)cc1)C(=O)NCc1ccccn1 (centres undefined) ; retrieve measured outcome.
OUT: inactive

IN: Param item = OCCN1CCN(CC(O)COc2ccc3ccccc3c2)CC1 (centres undefined) ; retrieve measured outcome.
OUT: inactive
